The measurements presented in this section are drawn from patent US20220289830A1.

target: recombinant Pseudomonas aeruginosa PcrV, full-length (PAO), His-tagged (Pseudomonas aeruginosa); assay: SPR (BIACORE)
Property: pKd
// scale note: pKd = -log10(conc_M); give the bare number

Problem: Read off the recorded pKd for 7C1 (antibody, V domains shown, also called optimized anti-PcrV mAb clone 7C1) VH: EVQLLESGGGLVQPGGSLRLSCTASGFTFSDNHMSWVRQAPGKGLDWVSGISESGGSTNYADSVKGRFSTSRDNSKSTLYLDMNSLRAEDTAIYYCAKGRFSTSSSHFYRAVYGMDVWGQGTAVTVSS VL: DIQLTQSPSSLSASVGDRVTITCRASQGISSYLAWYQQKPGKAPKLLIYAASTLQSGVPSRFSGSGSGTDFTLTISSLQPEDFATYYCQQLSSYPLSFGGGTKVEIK
Result: 10.34

Problem: Read off the recorded pKd for 6D10 (antibody, V domains shown, also called optimized anti-PcrV mAb clone 6D10) VH: EVQLLESGGGLVQPGGSLRLSCTASGFTFSDYPMSWVRQAPGKGLDWVSGISESGGSTNYADSVKGRFSTSRDNSKSTLYLDMNSLRAEDTAIYYCAKGRFSTDSSHFYRAVYGMDVWGQGTAVTVSS VL: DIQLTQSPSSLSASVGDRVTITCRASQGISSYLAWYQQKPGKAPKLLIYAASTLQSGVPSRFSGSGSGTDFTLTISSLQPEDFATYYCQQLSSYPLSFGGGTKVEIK
Result: 10.28

Problem: Read off the recorded pKd for 8C1 (antibody, V domains shown, also called optimized anti-PcrV mAb clone 8C1) VH: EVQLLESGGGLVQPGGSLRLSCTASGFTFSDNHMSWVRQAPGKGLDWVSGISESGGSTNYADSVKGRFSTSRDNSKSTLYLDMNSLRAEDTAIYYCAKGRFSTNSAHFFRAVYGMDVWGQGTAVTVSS VL: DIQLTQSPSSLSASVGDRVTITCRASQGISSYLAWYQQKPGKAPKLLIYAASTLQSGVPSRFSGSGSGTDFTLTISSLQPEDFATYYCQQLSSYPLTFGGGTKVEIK
Result: 10.50

Problem: Read off the recorded pKd for 7B1 (antibody, V domains shown, also called 7B1-IgG1; 7B1 mAb) VH: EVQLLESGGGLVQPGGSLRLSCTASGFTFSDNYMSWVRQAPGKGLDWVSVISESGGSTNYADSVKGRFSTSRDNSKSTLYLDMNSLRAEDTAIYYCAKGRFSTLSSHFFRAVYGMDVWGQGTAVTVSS VL: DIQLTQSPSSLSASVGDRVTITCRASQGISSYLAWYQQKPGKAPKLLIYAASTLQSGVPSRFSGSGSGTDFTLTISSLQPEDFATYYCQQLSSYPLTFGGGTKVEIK
Result: 10.07
